# experimental-protocol: NCI Yeast Anticancer Drug Screen. Data for the cln2 rad14 strain (AID 165);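 note: 0% = growth equal to vehicle treated cultures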
# setup-conditions: S. cerevisiae cln2 rad14 strain, at 50.0 µM (retest, dose inferred, filed as 5.0), hits give high values
The panel holds about 79,000 compounds, 15% with a hit somewhere; the sample as a whole holds those more often.

>  <compound>
c1ccc(-c2c[nH]c(-c3ccccc3)c2-c2ccccc2)cc1

>  <growth inhibition / %>
80

$$$$
>  <compound>
Cc1c(-c2ccccc2)ccnc1/C=N/NS(=O)(=O)c1ccccc1

>  <growth inhibition / %>
-6

$$$$
>  <compound>
C=C1C(=O)O[C@@H]2CC(CO)=C([C@@H](C)CCCO)[C@@H](OC(=O)/C(C)=C\C)[C@H]12

>  <growth inhibition / %>
6

$$$$
>  <compound>
COc1ccc2cc(C3CCCC3(C)CC(=O)O)ccc2c1 (configuration not stated)

>  <growth inhibition / %>
7

$$$$
>  <compound>
CCc1cc2c(c3c1C(=O)CC3)C(C)(C)CCC2

>  <growth inhibition / %>
97

$$$$
>  <compound>
O=C(Nc1nnc(-c2ccccc2)s1)c1cc(=O)c2cc(Cl)ccc2o1

>  <growth inhibition / %>
62

$$$$
>  <compound>
Cc1noc(NS(=O)(=O)c2ccc(NCc3c4ccccc4nc4cc(Cl)ccc34)cc2)c1C

>  <growth inhibition / %>
-3

$$$$
>  <compound>
Cc1ccc(C(=O)CC(N)C(=O)O)cc1 (configuration not stated)

>  <growth inhibition / %>
1

$$$$
>  <compound>
CCCCC(Oc1cc(C(C)(C)C)c(O)c(C(C)(C)C)c1)C(=O)O (configuration not stated)

>  <growth inhibition / %>
95

$$$$
>  <compound>
Cc1ccccc1C[n+]1ccccc1Br

>  <growth inhibition / %>
74

$$$$
>  <compound>
CC12CCc3ccccc3C1=Nc1ccccc12 (configuration not stated)

>  <growth inhibition / %>
-20

$$$$
>  <compound>
CCN(CC)CCSCCCNc1cc(OC)cc2cccnc12

>  <growth inhibition / %>
32

$$$$
>  <compound>
O=C(N/C(=C\c1ccc(Br)cc1)c1nc2ccccc2[nH]1)c1ccccc1

>  <growth inhibition / %>
41

$$$$
>  <compound>
C[n+]1cc2c3ccccc3ccc2c2ccccc21

>  <growth inhibition / %>
45

$$$$
>  <compound>
CCCCCCCCS(=O)(=O)Nc1ccccc1

>  <growth inhibition / %>
99

$$$$
>  <compound>
Cc1cc2ccccc2c[n+]1Cc1ccc2ccccc2n1

>  <growth inhibition / %>
-24

$$$$
>  <compound>
CC(=O)N1C=C2CCC3c4ccccc4NC3C2CC1 (configuration not stated)

>  <growth inhibition / %>
0

$$$$
>  <compound>
O=C1NN=C(c2ccc(Cl)cc2)CC1C1C(=O)N(c2ccccc2)N=C1c1ccccc1 (configuration not stated)

>  <growth inhibition / %>
97

$$$$
>  <compound>
C/C(=C\N1CCN(c2ccc(Cl)cc2)C(C)C1)C(=O)c1ccccc1 (configuration not stated)

>  <growth inhibition / %>
86

$$$$
>  <compound>
O=C1c2ccccc2C(=O)c2c(Nc3cc4c5c(ccc6c7ccc8c9c(cc(Nc%10cccc%11c%10C(=O)c%10ccccc%10C%11=O)c(c3c56)c97)-c3ccccc3C8=O)C(=O)c3ccccc3-4)cccc21

>  <growth inhibition / %>
4

$$$$
>  <compound>
Nc1nc(-c2ccc(Cl)cc2)c(N=Nc2ccc(Br)cc2)s1

>  <growth inhibition / %>
89

$$$$
>  <compound>
COc1cc(-c2oc(C=Nc3ccccc3)c([N+](=O)[O-])c2-c2ccc(O)c(OC)c2)ccc1O

>  <growth inhibition / %>
74

$$$$
>  <compound>
CCc1c(O)c(O)c(C(C)=O)c2c(O)c(-c3c(C)cc4c(CC)c(O)c(O)c(C(C)=O)c4c3O)c(C)cc12

>  <growth inhibition / %>
94

$$$$
>  <compound>
COc1ccc(C2c3cc4c(cc3OC(O)(CO)C2C(=O)O)OCO4)cc1 (configuration not stated) (tested in a mixture with another compound)

>  <growth inhibition / %>
90

$$$$
>  <compound>
COc1ccccc1/C=C1\SC(=S)N(/C=C2\C(=O)Oc3ccccc3C2=O)C1=O

>  <growth inhibition / %>
17

$$$$
>  <compound>
Nc1ccc(SCCCc2c(N)nc(N)nc2N)cc1

>  <growth inhibition / %>
-17

$$$$
>  <compound>
O=C(CCl)OCC(=O)c1ccc(-c2ccccc2)cc1

>  <growth inhibition / %>
95

$$$$
>  <compound>
CN1CCS(=O)(=O)C1=O

>  <growth inhibition / %>
54

$$$$
>  <compound>
O=Cc1nc2c3cccnc3ccc2n1Cc1ccccc1

>  <growth inhibition / %>
5

$$$$
>  <compound>
C[C@]12CCC(=O)C=C1CC[C@@H]1[C@@H]2[C@@H](O)C[C@@]2(C)[C@H]1CC[C@]2(O)C(=O)COC(=O)CCC1CCCC1

>  <growth inhibition / %>
96

$$$$
>  <compound>
Cc1ccc(C(=O)OCCN2CCN(c3ccccc3)CC2)c([N+](=O)[O-])c1OCc1ccccc1

>  <growth inhibition / %>
64

$$$$
>  <compound>
CCCC(O)[C@@]1(CC)CC(C)C(O)(C2(C)C[C@H](C)[C@@H](C(CC)C(=O)C(C)[C@@H](O)[C@H](C)C3OC(O)(C(CC)C(=O)O)[C@@H](C)C(O)C3CC)O2)O1 (some centres not stated)

>  <growth inhibition / %>
28

$$$$
>  <compound>
Oc1c(Cl)cc(Cl)cc1Br

>  <growth inhibition / %>
91

$$$$
>  <compound>
Cc1c[nH]c(=O)n(CC(=O)C2CCC3C4CCC5=CC(=O)CCC5(C)C4CCC23C)c1=O (configuration not stated)

>  <growth inhibition / %>
4

$$$$
>  <compound>
C=C(Br)CN1CCC2(c3ccccc3)C(O)C([Se]c3ccccc3)CCC12 (configuration not stated)

>  <growth inhibition / %>
80

$$$$
>  <compound>
CSc1cc(Cl)c(C)cc1S(=O)(=O)NC(=O)Nc1ccc(Cl)cc1

>  <growth inhibition / %>
97

$$$$
>  <compound>
CCNC(=O)NNc1ncnc2c1c(-c1ccc(Cl)cc1)cn2-c1ccc(C)cc1

>  <growth inhibition / %>
97

$$$$
>  <compound>
Clc1ccc(-c2nnc(-c3ccccn3)o2)c(Cl)c1

>  <growth inhibition / %>
83

$$$$
>  <compound>
CC12C(=O)OC(=O)C1C1c3ccccc3C2c2ccccc21 (configuration not stated)

>  <growth inhibition / %>
95

$$$$
>  <compound>
O=c1c2ccccc2nc(-c2ccccc2)n1NC(=S)Nc1ccc(Cl)cc1[N+](=O)[O-]

>  <growth inhibition / %>
14

$$$$
>  <compound>
O=C(O)c1ccccc1NC(c1ccccc1)c1ccc2cccnc2c1O (configuration not stated)

>  <growth inhibition / %>
88

$$$$
>  <compound>
O=C1NC(=S)S/C1=C\c1ccc(F)cc1

>  <growth inhibition / %>
1

$$$$
